In what follows, each item is paired with its IC50 for GST-Chk1 enzyme (Homo sapiens).
Numbers only here, please. The scale is nM.

Cc1[nH]nc(-c2nc3cc4ccccc4cc3[nH]2)c1C(=O)NC1CCNCC1 [Example 5]; 10
Cc1[nH]nc(-c2nc3cc4ccccc4cc3[nH]2)c1C(=O)NCC1CCCNC1 (stereo not drawn) [Example 28]; 8
Cc1[nH]nc(-c2nc3ccccc3[nH]2)c1C(=O)NC1CCCNC1 (stereo not drawn) [Example 19]; 58
Cc1[nH]nc(-c2nc3ccc(C(=O)NCC(O)c4ccccc4)cc3[nH]2)c1C(=O)NC1CCNCC1 (stereo not drawn) [Example 35]; 37
Cc1[nH]nc(-c2nc3ccccc3[nH]2)c1C(=O)NC1CCNCC1 [Example 1]; 98
Cc1[nH]nc(-c2nc3cc(Cl)ccc3[nH]2)c1C(=O)NC1CCNCC1 [Example 17]; 222
Cc1[nH]nc(-c2nc3cc4nc[nH]c4cc3[nH]2)c1C(=O)NC1CCNCC1 [Example 11]; 88
Cc1[nH]nc(-c2nc3ccc(C4CC4)cc3[nH]2)c1C(=O)NC1CCNCC1 [Example 40]; 22
Cc1cc2nc(-c3n[nH]c(C)c3C(=O)NC3CCN(C)CC3)[nH]c2cc1C [Example 29]; 16
Cc1[nH]nc(-c2nc3cc(Cl)c(C(C)C)cc3[nH]2)c1C(=O)NC1CCNCC1 [Example 45]; 13

Any idea what IC50 was measured for Cc1[nH]nc(-c2nc3ccccc3[nH]2)c1C(=O)NCCCN [Example 4] ?
31

Any idea what IC50 was measured for Cc1[nH]nc(-c2nc3ccc(C(F)(F)F)cc3[nH]2)c1C(=O)NC1CCNCC1 [Example 38] ?
58

Any idea what IC50 was measured for Cc1[nH]nc(-c2nc3ccc(C(F)(F)F)cc3[nH]2)c1C(=O)NCC1CCCNC1 (stereo not drawn) [Example 39] ?
49

Any idea what IC50 was measured for Cc1[nH]nc(-c2nc3cc(C#N)ccc3[nH]2)c1C(=O)NC1CCNCC1 [Example 18] ?
137

Any idea what IC50 was measured for Cc1[nH]nc(-c2nc3cc4ccccc4cc3[nH]2)c1C(=O)NCC1CCCN1 (stereo not drawn) [Example 26] ?
309

Any idea what IC50 was measured for Cc1[nH]nc(-c2nc3cc(Cl)c(C(C)C)cc3[nH]2)c1C(=O)NC1CN2CCC1CC2 (stereo not drawn) [Example 44] ?
91

Any idea what IC50 was measured for Cc1[nH]nc(-c2nc3ccccc3[nH]2)c1C(=O)NC1CCN(C)CC1 [Example 30] ?
63.5

Any idea what IC50 was measured for O=C(NC1CCNCC1)c1c[nH]nc1-c1nc2ccccc2[nH]1 [Example 20] ?
252

###

In what follows, each item is paired with its pIC50 for UniProtKB P31749.
Keep it numeric: pIC50 is minus log10 of the concentration in mol/L.

Cc1[nH]nc(-c2nc3ccccc3[nH]2)c1C(=O)NC1CCNCC1 [Example 1]; 4.77
Cc1[nH]nc(-c2nc3ccccc3[nH]2)c1C(=O)NC1CCN(C)CC1 [Example 30]; 4.93
Cc1[nH]nc(-c2nc3ccc(C(=O)NCC(O)c4ccccc4)cc3[nH]2)c1C(=O)NC1CCNCC1 (centres unmarked) [Example 35]; 4.97

Let's switch to this compound now.
Hi! What's the reported pIC50 for Cc1[nH]nc(-c2nc3ccc(C(=O)NCC(C)c4ccccc4)cc3[nH]2)c1C(=O)NC1CCNCC1 (centres unmarked) [Example 32] on UniProtKB P31749?
4.74

###

molecular target: CDK-2 enzyme, complexed with cyclin A (Homo sapiens, UniProt P24941); assay: CDK2 kinase assay (33P peptide phosphorylation); conditions: 0.1 mM ATP, cyclin A complex
Experimental endpoint: pIC50
Keep it numeric: pIC50 is minus log10 of the concentration in mol/L.

Some solved cases for reference:
COCCNC(=O)c1ccc2nc(-c3n[nH]c(C)c3C(=O)NC3CCNCC3)[nH]c2c1; 4.94
Cc1[nH]nc(-c2nc3ccccc3[nH]2)c1C(=O)NCCCCN; 4.36
Cc1[nH]nc(-c2nc3ccccc3[nH]2)c1C(=O)NC1CCNCC1; 5.48
Cc1[nH]nc(-c2nc3cc4ccccc4cc3[nH]2)c1C(=O)NC1CCNCC1; 5.34
Cc1cc2nc(-c3n[nH]c(C)c3C(=O)NC3CCCNC3)[nH]c2cc1C (stereo not drawn); 5.44

Any idea what pIC50 was measured for Cc1[nH]nc(-c2nc3ccccc3[nH]2)c1C(=O)NC1CCCNC1 (stereo not drawn) ?
5.35

Any idea what pIC50 was measured for Cc1[nH]nc(-c2nc3ccc(-c4cc5ccccc5[nH]4)cc3[nH]2)c1C(=O)NC1CCNCC1 ?
5.55

Any idea what pIC50 was measured for CCOC(=O)c1ccc2nc(-c3n[nH]c(C)c3C(=O)NC3CCNCC3)[nH]c2c1 ?
4.40

Any idea what pIC50 was measured for Cc1[nH]nc(-c2nc3ccc(C(F)(F)F)cc3[nH]2)c1C(=O)NC1CCNCC1 ?
4.71

###

target: PKA (Homo sapiens)
pIC50: −log10 of the molar value.
pIC50 vs 5: at or above is Condition met, below is Condition not met.

// below: answered compounds
Cc1[nH]nc(-c2nc3cc4cn[nH]c4cc3[nH]2)c1C(=O)NCC1CCNCC1; Condition met
Cc1[nH]nc(-c2nc3ccc(C(=O)NCC(C)c4ccccc4)cc3[nH]2)c1C(=O)NC1CCNCC1 (centres unmarked); Condition met
O=C(NC1CCNCC1)c1c[nH]nc1-c1nc2ccccc2[nH]1; Condition not met
Cc1[nH]nc(-c2nc3cc4ccccc4cc3[nH]2)c1C(=O)NC1CCNCC1; Condition met
Cc1[nH]nc(-c2nc3ccc(-c4cc5ccccc5[nH]4)cc3[nH]2)c1C(=O)NC1CCNCC1; Condition met

In plain terms: is recorded pIC50 at least 5 for Cc1[nH]nc(-c2nc3cc(Cl)c(C(C)C)cc3[nH]2)c1C(=O)NC1CCNCC1 ?
Condition met

In plain terms: is recorded pIC50 at least 5 for Cc1[nH]nc(-c2nc3cc4ccccc4cc3[nH]2)c1C(=O)NCC1CCCN1 (centres unmarked) ?
Condition not met

In plain terms: is recorded pIC50 at least 5 for Cc1[nH]nc(-c2nc3cc(F)c(NC(=O)C4CC4)cc3[nH]2)c1C(=O)NC1CCN(C)CC1 ?
Condition not met

In plain terms: is recorded pIC50 at least 5 for Cc1cc2nc(-c3n[nH]c(C)c3C(=O)NC3CCCN(C)C3)[nH]c2cc1C (centres unmarked) ?
Condition not met

In plain terms: is recorded pIC50 at least 5 for Cc1[nH]nc(-c2nc3ccc(C(C)C)cc3[nH]2)c1C(=O)NC1CN2CCC1CC2 (centres unmarked) ?
Condition met

In plain terms: is recorded pIC50 at least 5 for Cc1[nH]nc(-c2nc3cc(-c4cccc5c4CCO5)ccc3[nH]2)c1C(=O)NC1CCNCC1 ?
Condition met

In plain terms: is recorded pIC50 at least 5 for Cc1[nH]nc(-c2nc3ccc(C4CC4)cc3[nH]2)c1C(=O)NC1CCNCC1 ?
Condition met

In plain terms: is recorded pIC50 at least 5 for Cc1[nH]nc(-c2nc3ccccc3[nH]2)c1C(=O)NCCCN ?
Condition not met

In plain terms: is recorded pIC50 at least 5 for Cc1[nH]nc(-c2nc3ccc(C(C)C)cc3[nH]2)c1C(=O)NC1CCN(C)CC1 ?
Condition met

###

biological target: Akt1 (Homo sapiens)
Sequence (P31749 whole entry, species assumed): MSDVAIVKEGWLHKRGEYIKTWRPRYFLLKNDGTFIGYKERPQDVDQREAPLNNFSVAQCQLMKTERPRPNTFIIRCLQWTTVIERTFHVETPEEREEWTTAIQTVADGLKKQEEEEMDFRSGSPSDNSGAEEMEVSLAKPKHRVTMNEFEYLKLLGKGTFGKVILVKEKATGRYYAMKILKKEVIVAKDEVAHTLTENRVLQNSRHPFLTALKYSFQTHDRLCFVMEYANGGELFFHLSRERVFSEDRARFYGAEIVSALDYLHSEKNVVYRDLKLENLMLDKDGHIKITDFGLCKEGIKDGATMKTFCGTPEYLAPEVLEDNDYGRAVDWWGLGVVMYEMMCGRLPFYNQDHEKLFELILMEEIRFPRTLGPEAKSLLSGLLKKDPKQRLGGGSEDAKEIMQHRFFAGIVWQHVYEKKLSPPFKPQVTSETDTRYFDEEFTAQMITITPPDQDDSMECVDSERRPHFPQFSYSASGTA
Experimental endpoint: IC50

Cc1[nH]nc(-c2nc3cc4ccccc4cc3[nH]2)c1C(=O)NCC1CCCNC1 (stereo not shown); > 50 µM

Hi! What's the reported IC50 for Cc1[nH]nc(-c2nc3cc4ccccc4cc3[nH]2)c1C(=O)NCC1CCCN1 (stereo not shown) on Akt1 (Homo sapiens)?
> 50 µM

Hi! What's the reported IC50 for Cc1[nH]nc(-c2nc3ccc(C4CC4)cc3[nH]2)c1C(=O)NC1CCNCC1 on Akt1 (Homo sapiens)?
> 10 µM

Hi! What's the reported IC50 for Cc1[nH]nc(-c2nc3cc4ccccc4cc3[nH]2)c1C(=O)NCC1CCNC1 (stereo not shown) on Akt1 (Homo sapiens)?
> 50 µM

###

target: UniProt P31749
Experimental endpoint: IC50

Hi! What's the reported IC50 for Cc1[nH]nc(-c2nc3ccc(C(C)C)cc3[nH]2)c1C(=O)N[C@@H]1CN2CCC1CC2 [Example 43] on UniProt P31749?
> 10 µM

###

Target: PDK1 (Homo sapiens, UniProt O15530)
Sequence (O15530 1-556): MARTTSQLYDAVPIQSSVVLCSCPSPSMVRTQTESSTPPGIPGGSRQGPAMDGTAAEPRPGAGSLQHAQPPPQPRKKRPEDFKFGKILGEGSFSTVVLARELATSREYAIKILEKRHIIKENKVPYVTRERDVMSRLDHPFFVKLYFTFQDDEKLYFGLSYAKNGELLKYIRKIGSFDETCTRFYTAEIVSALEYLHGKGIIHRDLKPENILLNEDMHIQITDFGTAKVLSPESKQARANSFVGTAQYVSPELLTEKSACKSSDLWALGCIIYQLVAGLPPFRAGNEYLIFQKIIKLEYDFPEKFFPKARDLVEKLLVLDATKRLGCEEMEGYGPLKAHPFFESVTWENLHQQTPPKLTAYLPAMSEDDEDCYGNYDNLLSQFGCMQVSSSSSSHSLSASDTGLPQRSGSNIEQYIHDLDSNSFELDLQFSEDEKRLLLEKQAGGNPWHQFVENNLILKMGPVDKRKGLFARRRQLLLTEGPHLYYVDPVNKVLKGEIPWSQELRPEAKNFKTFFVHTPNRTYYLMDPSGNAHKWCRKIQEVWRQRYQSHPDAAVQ
pIC50: −log10 of the molar value.
pIC50 vs 7: at or above is satisfied, below is not satisfied.

In plain terms: is recorded pIC50 at least 7 for Cc1[nH]nc(-c2nc3cc(C#N)ccc3[nH]2)c1C(=O)NC1CCNCC1 [Example 18] ?
not satisfied
